These measurements were taken from ChEMBL document CHEMBL1201862.

target.of.assay: Cytochrome P450 3A4 (Homo sapiens);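 also: confirmatory qHTS run detecting inhibitors and substrates of CYP3A4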
Sequence (P08684 whole entry): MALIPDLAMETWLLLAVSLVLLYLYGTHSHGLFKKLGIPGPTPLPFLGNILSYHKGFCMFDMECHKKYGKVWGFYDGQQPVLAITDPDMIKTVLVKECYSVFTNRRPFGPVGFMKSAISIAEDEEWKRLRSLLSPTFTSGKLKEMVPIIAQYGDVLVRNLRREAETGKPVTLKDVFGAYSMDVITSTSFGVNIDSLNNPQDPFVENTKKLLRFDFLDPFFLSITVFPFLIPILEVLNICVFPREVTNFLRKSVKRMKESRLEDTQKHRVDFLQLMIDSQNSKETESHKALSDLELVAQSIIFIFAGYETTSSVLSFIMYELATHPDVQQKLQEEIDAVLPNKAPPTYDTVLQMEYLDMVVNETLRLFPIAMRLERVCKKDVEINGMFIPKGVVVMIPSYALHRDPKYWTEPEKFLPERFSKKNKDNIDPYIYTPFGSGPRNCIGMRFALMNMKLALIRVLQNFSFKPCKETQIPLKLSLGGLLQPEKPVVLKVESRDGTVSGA
run.conditions: Potency
Structures can show the parent of a compound that is named as a salt.
Provide the recorded AC50 for the entries that follow.

If you can, please state the reported AC50 value of "COc1cc2c(cc1OC)C(=O)OC2" .
12.6 µM (inconclusive)

GET /values?readout=AC50&item= "CC1=C(/C=C/C(C)=C/C=C/C(C)=C/C(=O)O)C(C)(C)CCC1"
39.8 µM (inconclusive)

Please report the recorded AC50 for COC(=O)NC(/C=C/c1ccccc1)[C@]1(C(C)=O)CCCC1=O (stereo not given in full) .
3.98 µM (inconclusive)

Consider the molecule shown here: "O=c1c(O)c(-c2ccccc2)oc2ccccc12" What is its recorded AC50?
25.1 µM (inconclusive)

Need AC50 of NNCc1ccccc1 [BENZYLHYDRAZINE HYDROCHLORIDE] , thanks.
7.94 µM (inconclusive)
